molecular target: human cathepsin L (Homo sapiens, UniProt P07711); construct: purchased R&D Systems; assay: Cathepsin L assay (Z-FR-AMC fluorescence); assay type: biochemical; settings: 10 pM human cathepsin L, 30 mins preincubation, Z-FR-AMC 2 μM
Sequence (P07711 114-333): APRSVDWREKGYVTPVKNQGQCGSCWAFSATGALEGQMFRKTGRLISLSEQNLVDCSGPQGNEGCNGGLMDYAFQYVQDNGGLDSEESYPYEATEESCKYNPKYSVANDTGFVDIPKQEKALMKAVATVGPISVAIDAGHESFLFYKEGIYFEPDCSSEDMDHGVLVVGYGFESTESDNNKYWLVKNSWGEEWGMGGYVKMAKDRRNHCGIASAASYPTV
pIC50: −log10 of the molar value.
The following molecules are listed with their measured pIC50 values.

[
  {
    "molecule": "CC(C)(C)[C@H](NC(=O)C(F)(F)F)C(=O)N1C[C@H]2[C@@H]([C@H]1C(=O)NC(C[C@@H]1CCNC1=O)C(=O)C(=O)NC1CC1)[C@H]1C=C[C@@H]2C1 (stereo partly drawn)",
    "pIC50": "≤ 5.00"
  },
  {
    "molecule": "CC(F)(F)[C@H](NC(=O)C(F)(F)F)C(=O)N1C[C@H]2[C@@H]([C@H]1C(=O)N[C@H](C#N)C[C@@H]1CCNC1=O)[C@H]1C=C[C@@H]2C1",
    "pIC50": "≤ 5.00"
  },
  {
    "molecule": "O=C(NC1CC1)C(=O)C(C[C@@H]1CCNC1=O)NC(=O)[C@@H]1[C@@H]2[C@H](CN1C(=O)[C@@H]1C[C@]13CCCc1ccccc13)[C@@H]1C=C[C@H]2C1 (stereo partly drawn)",
    "pIC50": "≤ 5.00"
  },
  {
    "molecule": "N#C[C@H](C[C@@H]1CCNC1=O)NC(=O)[C@@H]1[C@@H]2[C@H](CN1C(=O)c1cc3c(Cl)cc(Cl)cc3[nH]1)[C@@H]1C=C[C@H]2C1",
    "pIC50": "≤ 5.00"
  },
  {
    "molecule": "CC(C)(C)[C@H](NC(=O)C(F)(F)F)C(=O)N1C[C@@H]2[C@H]3C[C@@H]([C@@H]2[C@H]1C(=O)N[C@H](C#N)C[C@@H]1CCNC1=O)[C@H](F)C3",
    "pIC50": "≤ 5.00"
  },
  {
    "molecule": "CC(C)(C)[C@H](NC(=O)C(F)(F)Cl)C(=O)N1C[C@@H]2[C@@H]3CC[C@@H](C3)[C@@H]2[C@H]1C(=O)N[C@H](C#N)C[C@@H]1CCNC1=O",
    "pIC50": "≤ 5.00"
  },
  {
    "molecule": "CC(C)(C)[C@H](NC(=O)c1cnccn1)C(=O)N1C[C@H]2[C@@H]([C@H]1C(=O)N[C@H](C#N)C[C@@H]1CCNC1=O)[C@H]1C=C[C@@H]2C1",
    "pIC50": "≤ 5.00"
  },
  {
    "molecule": "CC(C)(C)[C@H](NC(=O)[C@H]1CC1(F)F)C(=O)N1C[C@H]2[C@@H]([C@H]1C(=O)N[C@H](C#N)C[C@@H]1CCNC1=O)[C@H]1C=C[C@@H]2C1",
    "pIC50": "≤ 5.00"
  },
  {
    "molecule": "CC(C)(C)[C@H](NC(=O)C(F)(F)F)C(=O)N1C[C@H]2[C@@H]([C@H]1C(=O)N[C@H](C#N)C[C@@H]1CCNC1=O)[C@H]1C=C[C@@H]2CC1 [Compound 59b]",
    "pIC50": "≤ 5.00"
  },
  {
    "molecule": "CC(C)(C)[C@H](NC(=O)C(F)(F)F)C(=O)N1C[C@H]2[C@@H]([C@H]1C(=O)N[C@H](C#N)CC1Cn3nccc3NC1=O)[C@H]1C=C[C@@H]2C1 (stereo partly drawn)",
    "pIC50": "≤ 5.00"
  },
  {
    "molecule": "CC(C)(C)[C@H](NC(=O)C1COC1)C(=O)N1C[C@H]2[C@@H]([C@H]1C(=O)N[C@H](C#N)C[C@@H]1CCNC1=O)[C@H]1C=C[C@@H]2C1",
    "pIC50": "≤ 5.00"
  },
  {
    "molecule": "CC(C)(C)[C@H](NC(=O)C(F)(F)F)C(=O)N1C[C@@H]2[C@H]3C[C@@H]([C@@H]2[C@H]1C(=O)N[C@H](C#N)C[C@@H]1CCNC1=O)C1(CC1)C3",
    "pIC50": "≤ 5.00"
  },
  {
    "molecule": "CC(C)(C)[C@H](NC(=O)C(F)(F)F)C(=O)N1C[C@H]2[C@@H]([C@H]1C(=O)N[C@H](C#N)C[C@@H]1CCCNC1=O)[C@H]1C=C[C@@H]2C1",
    "pIC50": "≤ 5.00"
  },
  {
    "molecule": "CC(C)(C)[C@H](NC(=O)C(F)(F)F)C(=O)N1C[C@@H]2[C@@H]([C@@H]3CC[C@H]2O3)[C@@H]1C(=O)N[C@H](C#N)C[C@@H]1CCNC1=O (relative stereo) [Compound 58a]",
    "pIC50": "≤ 5.00"
  },
  {
    "molecule": "C#CC(C)(C)[C@H](NC(=O)C1(F)CC1)C(=O)N1C[C@H]2[C@@H]([C@H]1C(=O)N[C@H](C#N)C[C@@H]1CCNC1=O)[C@H]1C=C[C@@H]2C1",
    "pIC50": "≤ 5.00"
  },
  {
    "molecule": "CC(C)(C)[C@H](NC(=O)C(F)(F)Cl)C(=O)N1C[C@H]2[C@@H]([C@H]1C(=O)N[C@H](C#N)C[C@@H]1CCNC1=O)[C@H]1C=C[C@@H]2C1(F)F",
    "pIC50": "≤ 5.00"
  },
  {
    "molecule": "CC(C)(C)[C@H](NC(=O)C(F)(F)Cl)C(=O)N1C[C@H]2[C@@H]([C@H]1C(=O)N[C@H](C#N)C[C@@H]1CCNC1=O)[C@H]1C=C[C@@H]2C1",
    "pIC50": "≤ 5.00"
  },
  {
    "molecule": "CC(C)(C)[C@H](NC(=O)C12CC(C1)C2)C(=O)N1C[C@H]2[C@@H]([C@H]1C(=O)N[C@H](C#N)C[C@@H]1CCNC1=O)[C@H]1C=C[C@@H]2C1",
    "pIC50": "≤ 5.00"
  },
  {
    "molecule": "CC(C)(C)[C@H](NC(=O)C(F)(F)F)C(=O)N1C[C@H]2[C@@H]([C@H]1C(=O)NC(C#N)CC1CCc3cnnn31)[C@H]1C=C[C@@H]2C1 (stereo partly drawn)",
    "pIC50": "≤ 5.00"
  },
  {
    "molecule": "CC(F)(F)C(=O)N[C@H](C(=O)N1C[C@H]2[C@@H]([C@H]1C(=O)N[C@H](C#N)C[C@@H]1CCNC1=O)[C@H]1C=C[C@@H]2C1)C(C)(C)C",
    "pIC50": "≤ 5.00"
  },
  {
    "molecule": "CC(C)(C)[C@H](NC(=O)C(F)(F)F)C(=O)N1C[C@@H]2[C@@H]3CC[C@@H](C3)[C@@H]2[C@H]1C(=O)N[C@H](C#N)CC1Cc2ccccc2NC1=O (stereo partly drawn)",
    "pIC50": "≤ 5.00"
  }
]
